Test system: forty-four human cancer cell lines
Test: Cell proliferation assay (ATPlite, 72 hours) in the 44 cell line Oncolines panel
Format: cell-based
Conditions: Homo sapiens, DLD-1, read-out: cell panel IC50, DLD-1
measured_quantity: pIC50
# log scale: pIC50 equals minus log10 of the concentration in mol/L

COc1cc2c(Nc3ccc(Br)cc3F)ncnc2cc1OCC1CCN(C)CC1
5.22

API: value(readout= pIC50, system= forty-four human cancer cell lines, query= CN(C)C/C=C/C(=O)Nc1cc2c(Nc3ccc(F)c(Cl)c3)ncnc2cc1O[C@H]1CCOC1 )
5.77

Request: C[C@@H](Oc1cc(-c2cnn(C3CCNCC3)c2)cnc1N)c1c(Cl)ccc(F)c1Cl
5.52

Request: COc1cc(Nc2c(C#N)cnc3cc(OCCCN4CCN(C)CC4)c(OC)cc23)c(Cl)cc1Cl
5.65

* * *

Target: panel of more than 300 wild-type and mutant kinases (313 kinase panel) (Homo sapiens)
Assay: Kinase profiling in a biochemical assay panel (mobility shift assays and ELISA), %-inhibition at 1 μM; selectivity entropy
Settings: kinase NDR1; 1 μM
Items are presented alongside their recorded %-inhibition of NDR1.

Would you mind telling me what %-inhibition of NDR1 value was observed for Cc1nc(Nc2ncc(C(=O)Nc3c(C)cccc3Cl)s2)cc(N2CCN(CCO)CC2)n1 ?
-1.85%

Request: O=S(=O)(c1cccc2cnccc12)N1CCCNCC1
18%

Request: CCCS(=O)(=O)Nc1ccc(F)c(C(=O)c2c[nH]c3ncc(-c4ccc(Cl)cc4)cc23)c1F
-3.81%

Request: CS(=O)(=O)CCNCc1ccc(-c2ccc3ncnc(Nc4ccc(OCc5cccc(F)c5)c(Cl)c4)c3c2)o1
-0.543%

Request: C[C@@H](Oc1cc(-c2cnn(C3CCNCC3)c2)cnc1N)c1c(Cl)ccc(F)c1Cl
-1.48%

Request: Cc1cn(-c2cc(NC(=O)c3ccc(C)c(Nc4nccc(-c5cccnc5)n4)c3)cc(C(F)(F)F)c2)cn1
-3%

Request: CC(=O)Nc1cccc(-n2c(=O)n(C3CC3)c(=O)c3c(Nc4ccc(I)cc4F)n(C)c(=O)c(C)c32)c1
-1.68%

Request: N#CC[C@H](C1CCCC1)n1cc(-c2ncnc3[nH]ccc23)cn1
88%

* * *

Target: panel of more than 300 wild-type and mutant kinases (313 kinase panel) (Homo sapiens, UniProt P48729)
Experiment: Kinase profiling in a biochemical assay panel (mobility shift assays and ELISA), %-inhibition at 1 μM; selectivity entropy
Conditions: kinase CK1α; 1 μM compound
measured_quantity: %-inhibition, CK1α (%)
# unit: % | format: bare number

Past entries and their recorded results:
CS(=O)(=O)CCNCc1ccc(-c2ccc3ncnc(Nc4ccc(OCc5cccc(F)c5)c(Cl)c4)c3c2)o1
3.6
COc1cc2c(Nc3ccc(Br)cc3F)ncnc2cc1OCC1CCN(C)CC1
-3.59
COc1cc2nccc(Oc3ccc(NC(=O)C4(C(=O)Nc5ccc(F)cc5)CC4)cc3)c2cc1OC [cabozantinib]
-9
Cc1ccc(C(=O)Nc2ccc(CN3CCN(C)CC3)c(C(F)(F)F)c2)cc1C#Cc1cnc2cccnn12
8
C[C@@H](Oc1cc(-c2cnn(C3CCNCC3)c2)cnc1N)c1c(Cl)ccc(F)c1Cl
-1.36

Would you mind telling me what %-inhibition, CK1α value was observed for CC(C)(C)c1nc(-c2cccc(NS(=O)(=O)c3c(F)cccc3F)c2F)c(-c2ccnc(N)n2)s1 ?
13

Request: Cc1nc(Nc2ncc(C(=O)Nc3c(C)cccc3Cl)s2)cc(N2CCN(CCO)CC2)n1
-8.44

Request: Cc1ccc(Nc2nccc(N(C)c3ccc4c(C)n(C)nc4c3)n2)cc1S(N)(=O)=O
-4

* * *

Target: panel of more than 300 wild-type and mutant kinases (313 kinase panel) (Homo sapiens, UniProt P06239)
Sequence (P06239 whole entry, change not shown): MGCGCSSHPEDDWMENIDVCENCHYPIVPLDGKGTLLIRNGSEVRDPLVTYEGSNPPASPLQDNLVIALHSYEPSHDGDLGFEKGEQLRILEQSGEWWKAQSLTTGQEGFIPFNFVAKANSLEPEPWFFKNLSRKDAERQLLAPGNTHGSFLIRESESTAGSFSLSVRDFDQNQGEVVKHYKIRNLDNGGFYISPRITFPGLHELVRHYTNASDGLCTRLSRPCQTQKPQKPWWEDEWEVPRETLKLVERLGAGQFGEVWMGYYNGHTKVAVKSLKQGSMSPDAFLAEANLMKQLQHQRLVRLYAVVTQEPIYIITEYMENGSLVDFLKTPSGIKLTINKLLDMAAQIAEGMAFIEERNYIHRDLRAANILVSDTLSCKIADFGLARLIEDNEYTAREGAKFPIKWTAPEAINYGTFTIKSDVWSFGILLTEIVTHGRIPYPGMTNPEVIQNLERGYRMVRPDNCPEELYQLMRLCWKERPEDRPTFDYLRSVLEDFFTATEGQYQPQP
Test: Kinase profiling in a biochemical assay panel (mobility shift assays and ELISA), %-inhibition at 1 μM; selectivity entropy
Details: kinase LCK; compound at 1 μM
measured_quantity: %-inhibition of LCK (%)
# unit: % | format: bare number

Past entries and their recorded results:
CC(C)(C)c1nc(-c2cccc(NS(=O)(=O)c3c(F)cccc3F)c2F)c(-c2ccnc(N)n2)s1
83
CNC(=O)c1cc(Oc2ccc(NC(=O)Nc3ccc(Cl)c(C(F)(F)F)c3)c(F)c2)ccn1
85

Pending compound:
Would you mind telling me what %-inhibition of LCK value was observed for CC(=O)Nc1cccc(-n2c(=O)n(C3CC3)c(=O)c3c(Nc4ccc(I)cc4F)n(C)c(=O)c(C)c32)c1 ?
-7

* * *

Biological target: panel of more than 300 wild-type and mutant kinases (313 kinase panel) (Homo sapiens, UniProt P10721, V654A)
Sequence (P10721 26-976 V654A): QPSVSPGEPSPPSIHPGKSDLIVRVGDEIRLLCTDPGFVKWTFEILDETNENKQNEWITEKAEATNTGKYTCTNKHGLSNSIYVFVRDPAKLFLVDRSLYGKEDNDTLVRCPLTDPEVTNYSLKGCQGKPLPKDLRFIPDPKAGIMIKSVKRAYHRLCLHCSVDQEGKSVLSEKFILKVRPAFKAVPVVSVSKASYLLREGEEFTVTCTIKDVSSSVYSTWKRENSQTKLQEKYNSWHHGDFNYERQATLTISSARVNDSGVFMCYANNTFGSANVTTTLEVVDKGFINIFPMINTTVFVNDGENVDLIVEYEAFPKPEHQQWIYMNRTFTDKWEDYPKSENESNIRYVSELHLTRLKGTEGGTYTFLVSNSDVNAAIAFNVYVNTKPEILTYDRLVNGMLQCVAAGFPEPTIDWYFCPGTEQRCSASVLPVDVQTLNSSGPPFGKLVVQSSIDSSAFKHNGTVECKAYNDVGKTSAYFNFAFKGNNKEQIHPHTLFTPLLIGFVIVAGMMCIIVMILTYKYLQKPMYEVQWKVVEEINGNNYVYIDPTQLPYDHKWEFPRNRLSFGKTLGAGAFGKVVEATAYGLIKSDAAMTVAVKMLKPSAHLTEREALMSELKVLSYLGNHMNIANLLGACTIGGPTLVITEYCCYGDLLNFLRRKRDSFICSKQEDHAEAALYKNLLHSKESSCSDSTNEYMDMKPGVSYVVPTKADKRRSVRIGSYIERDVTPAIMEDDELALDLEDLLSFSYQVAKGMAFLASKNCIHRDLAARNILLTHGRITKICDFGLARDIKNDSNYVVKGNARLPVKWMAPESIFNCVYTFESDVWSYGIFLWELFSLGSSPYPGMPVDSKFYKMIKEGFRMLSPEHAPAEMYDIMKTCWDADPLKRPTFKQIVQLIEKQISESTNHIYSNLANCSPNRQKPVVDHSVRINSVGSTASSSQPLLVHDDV
Assay: Kinase profiling in a biochemical assay panel (mobility shift assays and ELISA), %-inhibition at 1 μM; selectivity entropy
Details: kinase KIT(V654A); compound at 1 μM
measured_quantity: %-inhibition of KIT(V654A) (%)
# unit: % | format: bare number

Past entries and their recorded results:
CO[C@H]1C[C@@H]2CC[C@@H](C)[C@@](O)(O2)C(=O)C(=O)N2CCCC[C@H]2C(=O)O[C@H]([C@H](C)C[C@@H]2CC[C@@H](OC(=O)C(C)(CO)CO)[C@H](OC)C2)CC(=O)[C@H](C)/C=C(\C)[C@@H](O)[C@@H](OC)C(=O)[C@H](C)C[C@H](C)/C=C/C=C/C=C/1C [temsirolimus]
-4.65
CC(=O)Nc1cccc(-n2c(=O)n(C3CC3)c(=O)c3c(Nc4ccc(I)cc4F)n(C)c(=O)c(C)c32)c1 [trametinib]
-1.62
CO[C@H]1C[C@@H]2CC[C@@H](C)[C@@](O)(O2)C(=O)C(=O)N2CCCC[C@H]2C(=O)O[C@H]([C@H](C)C[C@@H]2CC[C@@H](OCCO)[C@H](OC)C2)CC(=O)[C@H](C)/C=C(\C)[C@@H](O)[C@@H](OC)C(=O)[C@H](C)C[C@H](C)/C=C/C=C/C=C/1C [everolimus]
-3.52
COc1cc2nccc(Oc3ccc(NC(=O)C4(C(=O)Nc5ccc(F)cc5)CC4)cc3)c2cc1OC [cabozantinib]
97

Would you mind telling me what %-inhibition of KIT(V654A) value was observed for Cc1ccc(Nc2nccc(N(C)c3ccc4c(C)n(C)nc4c3)n2)cc1S(N)(=O)=O [pazopanib] ?
87

* * *

Molecular target: panel of more than 300 wild-type and mutant kinases (313 kinase panel) (Homo sapiens, UniProt Q15418)
Test: Kinase profiling in a biochemical assay panel (mobility shift assays and ELISA), %-inhibition at 1 μM; selectivity entropy
Conditions: kinase RSK1; 1 μM
measured_quantity: %-inhibition of RSK1
Give me the value, and tack the unit on after it.

Past entries and their recorded results:
Cc1ccc(C(=O)Nc2ccc(CN3CCN(C)CC3)c(C(F)(F)F)c2)cc1C#Cc1cnc2cccnn12 [ponatinib]
32%
CO[C@H]1C[C@@H]2CC[C@@H](C)[C@@](O)(O2)C(=O)C(=O)N2CCCC[C@H]2C(=O)O[C@H]([C@H](C)C[C@@H]2CC[C@@H](OCCO)[C@H](OC)C2)CC(=O)[C@H](C)/C=C(\C)[C@@H](O)[C@@H](OC)C(=O)[C@H](C)C[C@H](C)/C=C/C=C/C=C/1C [everolimus]
-13%
N#CC[C@H](C1CCCC1)n1cc(-c2ncnc3[nH]ccc23)cn1 [ruxolitinib]
1.49%
Cc1ccc(Nc2nccc(N(C)c3ccc4c(C)n(C)nc4c3)n2)cc1S(N)(=O)=O [pazopanib]
16%
CC(=O)Nc1cccc(-n2c(=O)n(C3CC3)c(=O)c3c(Nc4ccc(I)cc4F)n(C)c(=O)c(C)c32)c1 [trametinib]
-10%

Would you mind telling me what %-inhibition of RSK1 value was observed for CNC(=O)c1cc(Oc2ccc(NC(=O)Nc3ccc(Cl)c(C(F)(F)F)c3)c(F)c2)ccn1 [regorafenib] ?
0.165%

* * *

Molecular target: panel of more than 300 wild-type and mutant kinases (313 kinase panel) (Homo sapiens, UniProt Q13177)
Assay: Kinase profiling in a biochemical assay panel (mobility shift assays and ELISA), %-inhibition at 1 μM; selectivity entropy
Settings: kinase PAK2; 1 μM
measured_quantity: %-inhibition of PAK2 (%)
# unit: % | format: bare number

Past entries and their recorded results:
Cc1ccc(Nc2nccc(N(C)c3ccc4c(C)n(C)nc4c3)n2)cc1S(N)(=O)=O [pazopanib]
3.51
CO[C@H]1C[C@@H]2CC[C@@H](C)[C@@](O)(O2)C(=O)C(=O)N2CCCC[C@H]2C(=O)O[C@H]([C@H](C)C[C@@H]2CC[C@@H](OC(=O)C(C)(CO)CO)[C@H](OC)C2)CC(=O)[C@H](C)/C=C(\C)[C@@H](O)[C@@H](OC)C(=O)[C@H](C)C[C@H](C)/C=C/C=C/C=C/1C [temsirolimus]
-1.81
N#CC[C@H](C1CCCC1)n1cc(-c2ncnc3[nH]ccc23)cn1 [ruxolitinib]
3.37
CCCS(=O)(=O)Nc1ccc(F)c(C(=O)c2c[nH]c3ncc(-c4ccc(Cl)cc4)cc23)c1F [vemurafenib]
13
CS(=O)(=O)CCNCc1ccc(-c2ccc3ncnc(Nc4ccc(OCc5cccc(F)c5)c(Cl)c4)c3c2)o1 [lapatinib]
7
C[C@@H](Oc1cc(-c2cnn(C3CCNCC3)c2)cnc1N)c1c(Cl)ccc(F)c1Cl [crizotinib]
5
CNC(=O)c1cc(Oc2ccc(NC(=O)Nc3ccc(Cl)c(C(F)(F)F)c3)c(F)c2)ccn1 [regorafenib]
-1.3
CC(=O)Nc1cccc(-n2c(=O)n(C3CC3)c(=O)c3c(Nc4ccc(I)cc4F)n(C)c(=O)c(C)c32)c1 [trametinib]
-9
COc1cc2nccc(Oc3ccc(NC(=O)C4(C(=O)Nc5ccc(F)cc5)CC4)cc3)c2cc1OC [cabozantinib]
-5.44
COc1cc2c(Nc3ccc(Br)cc3F)ncnc2cc1OCC1CCN(C)CC1 [vandetanib]
-2

Would you mind telling me what %-inhibition of PAK2 value was observed for Cc1nc(Nc2ncc(C(=O)Nc3c(C)cccc3Cl)s2)cc(N2CCN(CCO)CC2)n1 [dasatinib] ?
0.254

Request: O=S(=O)(c1cccc2cnccc12)N1CCCNCC1 [fasudil]
-16

Request: CO[C@H]1C[C@@H]2CC[C@@H](C)[C@@](O)(O2)C(=O)C(=O)N2CCCC[C@H]2C(=O)O[C@H]([C@H](C)C[C@@H]2CC[C@@H](OCCO)[C@H](OC)C2)CC(=O)[C@H](C)/C=C(\C)[C@@H](O)[C@@H](OC)C(=O)[C@H](C)C[C@H](C)/C=C/C=C/C=C/1C [everolimus]
-8
